assay: Cytotoxicity against human BEAS-2B cells assessed as reduction in cell viability measured after 72 hrs by MTT assay; type: toxicity, cell-based
value.kind: IC50 at 72 h (µM)

structure.as.smiles	assay.value
CCOC(=O)c1c(-n2ccnc2)nc2ccc(Br)cc2c1N1CCN(c2ccccc2NS(=O)(=O)c2ccc(F)c(F)c2)CC1	45.8
CCOC(=O)c1c(-n2ccnc2)nc2ccc(Br)cc2c1N1CCN(c2ccccc2NS(=O)(=O)c2ccc(C(F)(F)F)cc2)CC1	85.1
CCOC(=O)c1c(-n2ccnc2)nc2ccc(Br)cc2c1N1CCN(c2ccccc2NS(=O)(=O)c2ccc(F)cc2)CC1	86.5

###

tested on: A549; assay: Anticancer activity against human A549 cells overexpressing wild type EGFR assessed as reduction in cell viability measured after 72 hrs by MTT assay; format: functional, cell-based; details: A549, 72 h
Measured IC50 accompanies every entry in the list below.

structure.as.smiles	target.desc	IC50, µM
CCOC(=O)c1c(-n2ccnc2)nc2ccc(Br)cc2c1N1CCN(c2ccccc2N)CC1	A549	11.5
CCOC(=O)c1c(-n2ccnc2)nc2ccc(Br)cc2c1N1CCN(c2ccccc2NS(=O)(=O)c2ccc(OC)cc2)CC1	A549	6.11
CCOC(=O)c1c(-n2ccnc2)nc2ccc(Br)cc2c1N1CCN(c2ccccc2NC(=O)c2cc(F)ccc2I)CC1	A549	4.3
CCOC(=O)c1c(-n2ccnc2)nc2ccc(Br)cc2c1N1CCN(c2ccccc2NS(=O)(=O)c2ccc(S(C)(=O)=O)cc2)CC1	A549	10.3
CCOC(=O)c1c(-n2ccnc2)nc2ccc(Br)cc2c1N1CCN(c2ccccc2NS(=O)(=O)c2ccc(F)cc2)CC1	A549	1.88
CCOC(=O)c1c(-n2ccnc2)nc2ccc(Br)cc2c1N1CCN(c2ccccc2NS(=O)(=O)c2ccccc2F)CC1	A549	2.41
CCOC(=O)c1c(-n2ccnc2)nc2ccc(Br)cc2c1N1CCN(c2ccccc2NC(=O)c2cc(F)ccc2Br)CC1	A549	4.82
CCOC(=O)c1c(-n2ccnc2)nc2ccc(Br)cc2c1N1CCN(c2ccccc2NS(=O)(=O)c2ccc(Br)cc2)CC1	A549	5.02
CCOC(=O)c1c(-n2ccnc2)nc2ccc(Br)cc2c1N1CCN(C(=O)OC(C)(C)C)CC1	A549	12.2

###

Measured pIC50 accompanies every entry in the list below.
biological target: Epidermal growth factor receptor (Homo sapiens, UniProt P00533, L858R/T790M); experiment: Inhibition of EGFR L858R/T790M mutant (unknown origin) using poly (Glu,Tyr) as substrate incubated for 40 mins in presence of ATP by Kinase-Glo luminescent analysis
Sequence (P00533 25-1210 T790M/L858R limits assumed): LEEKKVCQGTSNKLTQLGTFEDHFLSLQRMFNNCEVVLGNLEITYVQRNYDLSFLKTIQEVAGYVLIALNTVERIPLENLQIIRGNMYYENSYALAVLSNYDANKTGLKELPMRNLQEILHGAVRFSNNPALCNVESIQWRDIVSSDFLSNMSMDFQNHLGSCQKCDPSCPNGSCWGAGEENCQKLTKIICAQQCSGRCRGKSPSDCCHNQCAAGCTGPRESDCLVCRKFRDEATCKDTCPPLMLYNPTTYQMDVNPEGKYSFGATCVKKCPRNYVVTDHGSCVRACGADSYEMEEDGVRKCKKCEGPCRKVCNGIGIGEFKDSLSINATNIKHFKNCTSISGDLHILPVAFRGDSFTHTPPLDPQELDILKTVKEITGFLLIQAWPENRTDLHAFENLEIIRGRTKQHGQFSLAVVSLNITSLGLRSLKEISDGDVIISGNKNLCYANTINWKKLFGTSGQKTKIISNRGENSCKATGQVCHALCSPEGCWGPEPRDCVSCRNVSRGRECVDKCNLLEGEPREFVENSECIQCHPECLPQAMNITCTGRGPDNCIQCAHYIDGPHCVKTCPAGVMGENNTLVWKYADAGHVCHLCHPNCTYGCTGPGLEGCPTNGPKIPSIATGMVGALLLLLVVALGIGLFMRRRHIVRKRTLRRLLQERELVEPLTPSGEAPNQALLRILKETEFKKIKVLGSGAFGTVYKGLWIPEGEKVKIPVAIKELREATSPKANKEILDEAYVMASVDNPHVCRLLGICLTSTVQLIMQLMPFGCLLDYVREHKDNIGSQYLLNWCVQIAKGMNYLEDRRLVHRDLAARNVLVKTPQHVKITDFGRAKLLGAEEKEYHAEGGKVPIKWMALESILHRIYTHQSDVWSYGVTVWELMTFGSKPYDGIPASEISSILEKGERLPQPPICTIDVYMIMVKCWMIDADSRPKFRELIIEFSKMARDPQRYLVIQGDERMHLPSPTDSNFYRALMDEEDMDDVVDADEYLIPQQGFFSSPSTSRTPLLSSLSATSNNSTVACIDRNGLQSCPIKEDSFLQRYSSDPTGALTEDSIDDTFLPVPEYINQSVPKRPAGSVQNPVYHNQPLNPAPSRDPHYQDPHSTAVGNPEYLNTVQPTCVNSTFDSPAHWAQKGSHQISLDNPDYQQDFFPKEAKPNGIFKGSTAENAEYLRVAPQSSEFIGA
pIC50: −log10 of the molar value.

structure.as.smiles	pIC50
CCOC(=O)c1c(-n2ccnc2)nc2ccc(Br)cc2c1N1CCN(c2ccccc2NS(=O)(=O)c2ccccc2F)CC1	6.84
CCOC(=O)c1c(-n2ccnc2)nc2ccc(Br)cc2c1N1CCN(c2ccccc2NS(=O)(=O)c2ccc(F)cc2)CC1	6.82
CCOC(=O)c1c(-n2ccnc2)nc2ccc(Br)cc2c1N1CCN(c2ccccc2NS(=O)(=O)c2ccc(F)c(F)c2)CC1	6.80
CCOC(=O)c1c(-n2ccnc2)nc2ccc(Br)cc2c1N1CCN(c2ccccc2NS(=O)(=O)c2ccc(C(F)(F)F)cc2)CC1	6.86
